biological target: bovine heart mitochondrial complex I (Bos taurus, UniProt P03887+P17694+P42026); assay: Complex I (NADH-Q1 oxidoreductase) inhibition in submitochondrial particles; format: biochemical; settings: submitochondrial particles, 30° C.; read-out: Complex I inhibition IC50
Sequence (P25708 21-464): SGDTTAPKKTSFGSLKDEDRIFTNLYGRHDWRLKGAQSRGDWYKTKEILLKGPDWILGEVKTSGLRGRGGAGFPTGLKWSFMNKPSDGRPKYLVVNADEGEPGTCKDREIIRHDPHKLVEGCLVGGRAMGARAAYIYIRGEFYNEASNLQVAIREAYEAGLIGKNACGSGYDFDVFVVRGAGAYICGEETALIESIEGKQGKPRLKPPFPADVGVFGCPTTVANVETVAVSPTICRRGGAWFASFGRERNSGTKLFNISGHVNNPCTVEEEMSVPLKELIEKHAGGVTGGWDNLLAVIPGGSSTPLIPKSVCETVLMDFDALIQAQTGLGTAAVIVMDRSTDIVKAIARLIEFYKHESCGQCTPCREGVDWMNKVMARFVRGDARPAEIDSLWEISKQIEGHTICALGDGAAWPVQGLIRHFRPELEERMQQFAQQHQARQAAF
Sequence (P42026 38-216): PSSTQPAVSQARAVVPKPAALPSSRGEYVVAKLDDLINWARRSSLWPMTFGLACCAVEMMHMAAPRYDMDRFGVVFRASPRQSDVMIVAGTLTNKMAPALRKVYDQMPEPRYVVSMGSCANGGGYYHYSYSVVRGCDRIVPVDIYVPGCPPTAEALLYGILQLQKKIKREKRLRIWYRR
Sequence (P17694 34-463): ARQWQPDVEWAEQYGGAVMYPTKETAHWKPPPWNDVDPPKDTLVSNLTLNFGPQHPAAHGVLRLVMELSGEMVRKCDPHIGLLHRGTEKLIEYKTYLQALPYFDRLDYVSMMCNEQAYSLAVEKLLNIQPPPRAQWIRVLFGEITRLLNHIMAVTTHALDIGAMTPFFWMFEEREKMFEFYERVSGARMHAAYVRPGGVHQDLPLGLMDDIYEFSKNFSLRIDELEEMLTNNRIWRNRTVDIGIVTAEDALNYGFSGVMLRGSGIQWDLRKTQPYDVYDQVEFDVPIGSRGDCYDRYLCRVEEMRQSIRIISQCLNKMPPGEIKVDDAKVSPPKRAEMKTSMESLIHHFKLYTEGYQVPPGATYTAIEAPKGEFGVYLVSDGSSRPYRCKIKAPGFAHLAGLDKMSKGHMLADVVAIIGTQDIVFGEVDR
Sequence (P15690 24-727, further chain): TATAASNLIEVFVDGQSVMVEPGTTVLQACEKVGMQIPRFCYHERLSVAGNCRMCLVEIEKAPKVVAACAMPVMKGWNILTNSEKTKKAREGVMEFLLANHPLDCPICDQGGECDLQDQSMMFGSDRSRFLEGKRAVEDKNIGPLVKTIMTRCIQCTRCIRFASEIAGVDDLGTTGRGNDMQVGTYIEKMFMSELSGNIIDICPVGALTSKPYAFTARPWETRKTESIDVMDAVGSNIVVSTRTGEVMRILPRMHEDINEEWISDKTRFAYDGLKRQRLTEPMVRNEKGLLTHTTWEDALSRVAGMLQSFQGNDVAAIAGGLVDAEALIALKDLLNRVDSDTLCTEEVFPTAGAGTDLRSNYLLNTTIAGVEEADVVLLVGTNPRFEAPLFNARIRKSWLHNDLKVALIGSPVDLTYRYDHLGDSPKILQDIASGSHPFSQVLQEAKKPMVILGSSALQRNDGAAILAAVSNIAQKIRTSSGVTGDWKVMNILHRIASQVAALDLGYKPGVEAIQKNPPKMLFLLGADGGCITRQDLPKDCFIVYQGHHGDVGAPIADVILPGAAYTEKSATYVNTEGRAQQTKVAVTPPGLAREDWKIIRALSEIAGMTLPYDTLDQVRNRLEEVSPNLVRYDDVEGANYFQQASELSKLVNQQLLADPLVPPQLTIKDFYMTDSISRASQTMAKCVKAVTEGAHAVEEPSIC
Sequence (P03887 whole entry): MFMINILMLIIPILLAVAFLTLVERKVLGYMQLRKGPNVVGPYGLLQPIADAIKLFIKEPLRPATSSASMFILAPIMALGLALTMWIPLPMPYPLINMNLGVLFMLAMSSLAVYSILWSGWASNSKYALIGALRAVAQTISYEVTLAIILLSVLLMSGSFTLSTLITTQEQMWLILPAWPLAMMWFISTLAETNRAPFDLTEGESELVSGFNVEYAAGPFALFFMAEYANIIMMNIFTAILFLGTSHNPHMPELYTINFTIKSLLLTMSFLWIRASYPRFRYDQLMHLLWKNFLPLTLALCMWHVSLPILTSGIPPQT
Sequence (P42028 37-212, further chain): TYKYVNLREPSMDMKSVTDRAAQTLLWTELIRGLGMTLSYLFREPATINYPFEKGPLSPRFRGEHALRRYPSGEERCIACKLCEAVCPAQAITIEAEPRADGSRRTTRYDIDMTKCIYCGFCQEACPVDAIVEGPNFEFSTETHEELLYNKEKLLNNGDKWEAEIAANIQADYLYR
Hi there, I'd appreciate the recorded IC50 for every entry that follows.
Give just the number in nM; leave the unit off.

(Q) Which IC50 is listed for CCCCCCCCCCCCCC1=C(OC)C(=O)C=C(NCCCC(=O)OCCCC)C1=O ?
(A) 98000

(Q) Same question for CCCCCCCCCCCCCC1=C(OC)C(=O)C=C(NCCCC(=O)OCCCCCC)C1=O please.
(A) 513000

(Q) Quick one: CCCCCCCCCCCCCC1=C(O)C(=O)C=C(NCCCC(=O)OCCCCCC)C1=O
(A) 2000

(Q) Please answer likewise for CCCCCCCCCCCCCC1=C(OC)C(=O)C=C(N(C)C)C1=O
(A) 1600

(Q) Next compound up: CCCCCCCCCCCCCC1=C(O)C(=O)C=C(NCCCC(=O)OCc2ccccc2)C1=O
(A) 1700

(Q) Let us now turn to CCCCCCCCCCCCCC1=C(O)C(=O)C=C(N(C)CCCC(=O)OCCCCCC)C1=O
(A) 3400

====

Hi there, I'd appreciate the recorded Emax for every entry that follows.
target: bovine heart mitochondrial complex I (Bos taurus, UniProt P03887+P17694+P42026); test: Complex I (NADH-Q1 oxidoreductase) inhibition in submitochondrial particles; type: biochemical; details: submitochondrial particles, 30° C.; read-out: Complex I inhibition Imax
Write the value in % as a bare number.

(Q) Recorded Emax for CCCCCCCCCCCCCC1=C(OC)C(=O)C=C(NCCCC(=O)O)C1=O , please?
(A) 98

(Q) Moving on to CCCCCCCCCCCCCC1=C(O)C(=O)C=C(NCCCC(=O)OCCCC)C1=O
(A) 58

(Q) How about this compound: CCCCCCCCCCCCCC1=C(O)C(=O)C=C(NCCCC(=O)OCCCCCC)C1=O
(A) 51

(Q) // next record CCCCCCCCCCCCCC1=C(O)C(=O)C=C(NCCCC(=O)OCc2ccccc2)C1=O
(A) 70

(Q) Then this compound: CCCCCCCCCCCCCC1=C(O)C(=O)C=C(N(C)CCCC(=O)OCCCCCC)C1=O
(A) 78

(Q) Repeat for the following compound: CCCCCCCCCCCCCC1=C(O)C(=O)C=C(N(C)C)C1=O
(A) 90

====

recorded_endpoint: melting point

(Q) Which melting point value belongs to C=CCCCCCCCCCC1=C(OC)C(=O)C=C(OC)C1=O ?
(A) 30 to 31 °C

(Q) // query: C=CCCCCCCCCCC1=C(O)C(=O)C=C(NCCCCC=C)C1=O
(A) 77 to 78 °C

(Q) Also check C=CCCCCCCCCCC1=C(O)C(=O)C=C(OC)C1=O
(A) 89 to 90 °C

(Q) And what about the compound C=CCCCCCCCCCc1c(OC)c(OC)cc(OC)c1OC ?
(A) 33 to 34 °C

(Q) // query: CCCCCCCCCCCCCC1=C(O)C(=O)C=C(NCCCCCC)C1=O
(A) 70 °C (dec.)

====

test system: FRDA lymphocytes; experiment: Suppression of lipid peroxidation (C11-BODIPY581/591, FACS) in FRDA lymphocytes treated with diethyl maleate; format: cell-based; conditions: Lymphocyte, 10 μM, DEM, read-out: Scavenging activity (%), suppression of lipid peroxidation
Decision: inhibition at 10 µM compared against 40%; not below it gives 1 (yes), below it gives 0 (no).

(Q) Threshold query (inhibition at 10 µM >= 40%) on CCCCCCCCCCCCCC1=C(NCCCC(=O)OCCCCCC)C(=O)C(C)=C(NCCCC(=O)OCCCCCC)C1=O
(A) 0 (no)

(Q) Now consider CCCCCCCCCCCCCC1=C(OC)C(=O)C=C(NCCCC(=O)OC(C)(C)C)C1=O and answer again.
(A) 1 (yes)

(Q) Another compound: CCCCCCCCCCCCCC1=C(OC)C(=O)C(C)=C(NCCCC(=O)OCCCCCC)C1=O
(A) 0 (no)

(Q) Same read-out for COC1=C2CCCCCCCCCCCCCCCNC(=CC1=O)C2=O ?
(A) 1 (yes)

(Q) Same question for CCCCCCCCCCCCCC1=C(OC)C(=O)C=C(NCCCC(=O)O)C1=O please.
(A) 1 (yes)

(Q) And the next one, CCCCCCCCCCCCCC1=C(O)C(=O)C=C(NCCCC(=O)OC(C)(C)C)C1=O ?
(A) 0 (no)

(Q) Same for CCCCCCCCCCCCCC1=C(OC)C(=O)C(C)=C(NCCCC(=O)OCCCC)C1=O
(A) 1 (yes)

====

system: NADH oxidase (complexes I, III and IV); assay: NADH oxidase activity (complexes I, III and IV) in submitochondrial particles; format: biochemical, bovine; settings: 5 μM
recorded_endpoint: NADH oxidase activity (Complex I, III, IV) %

(Q) Data request, read-out NADH oxidase activity (Complex I, III, IV) %, for CCCCCCCCCCCCCC1=C(OC)C(=O)C(C)=C(NCCCC(=O)OCCCCCC)C1=O [Compound 49]
(A) 83 ± 2^ %

(Q) Same lookup for CCCCCCCCCCCCCC1=C(OC)C(=O)C(C)=C(NCCCC(=O)OCCCC)C1=O [Compound 46] , please.
(A) 84 ± 4^ %

(Q) Input CCCCCCCCCCCCCC1=C(NCCCC(=O)OCCCC)C(=O)C(C)=C(NCCCC(=O)OCCCC)C1=O [Compound 47]
(A) 68 ± 1^ %

(Q) What would you report for CCCCCCCCCCCCCC1=C(OC)C(=O)C(C)=C(NCCCC(=O)OC(C)(C)C)C1=O [Compound 43] ?
(A) 85 ± 1^ %

(Q) What do you get for CCCCCCCCCCCCCC1=C(NCCCC(=O)OCCCCCC)C(=O)C(C)=C(NCCCC(=O)OCCCCCC)C1=O [Compound 50] ?
(A) 78 ± 6^ %

(Q) What do we get for COC1=C2CCCCCCCCCCCCCCCNC(=CC1=O)C2=O [Compound 40] ?
(A) 85 ± 1^ %

(Q) Next up: CCCCCCCCCCCCCC1=C(NCCCC(=O)OC(C)(C)C)C(=O)C(C)=C(NCCCC(=O)OC(C)(C)C)C1=O [Compound 44]
(A) 92 ± 3^ %

====

Test system: Friedreich's ataxia lymphoblast cell line GM15850
Experiment: Cytoprotection (trypan blue exclusion assay) of DEM-treated FRDA lymphocytes
Format: cell-based
Details: Homo sapiens, GM15850; 5 μM; DEM alone 18 ± 10% viability; read-out: Cytoprotection (cell viability, % of untreated control)
Description: Cell viability was determined by trypan blue exclusion assay in Friedreich's ataxia lymphoblast cell line GM15850 (Coriell Institute, New Jersey). […] The viability of DEM-treated FRDA cells was determined by their ability to exclude the dye trypan blue. […] Cell viability was determined by staining cells with 0.4% trypan blue using a hemacytometer. At least 500 cells were counted in each experimental group. […] Cell viability was expressed as the percentage of control. Data are expressed as means±S.E.M. (n=3). […]
Give measured viability at 5 µM for each item. Keep answers brief.
Reply with a number, then the unit it belongs to.

(Q) I have this compound here, CCCCCCCCCCCCCC1=C(OC)C(=O)C=C(NCCCC(=O)OCCCCCC)C1=O , and I need its recorded viability at 5 µM.
(A) 90%

(Q) Next record, please: CCCCCCCCCCCCCC1=C(OC)C(=O)C(C)=C(NCCCC(=O)OC(C)(C)C)C1=O
(A) 91%

(Q) Another compound to check: COC1=C2CCCCCCCCCCCCCCCNC(=CC1=O)C2=O
(A) 92%

(Q) Similarly, CCCCCCCCCCCCCC1=C(NCCCC(=O)OCCCCCC)C(=O)C(C)=C(NCCCC(=O)OCCCCCC)C1=O ?
(A) 91%

====

molecular target: bovine heart mitochondrial complex I (Bos taurus, UniProt P03887+P17694+P42026); experiment: Complex I (NADH-Q1 oxidoreductase) inhibition in submitochondrial particles; assay type: biochemical; settings: submitochondrial particles, 30° C.; read-out: Complex I inhibition Imax
recorded_endpoint: Emax

(Q) Dear colleague, I am looking for the recorded Emax of the following compound: CCCCCCCCCCCCCC1=C(OC)C(=O)C=C(NCCCC(=O)OCCCCCC)C1=O [Compound 18]
(A) > 85%

(Q) Similarly, CCCCCCCCCCCCCC1=C(OC)C(=O)C=C(NCCCC(=O)OC(C)(C)C)C1=O [Compound 7] ?
(A) > 85%

(Q) Next up: CCCCCCCCCCCCCC1=C(OC)C(=O)C=C(NCCCCCC)C1=O [Compound 20]
(A) > 85%

====

Exercise: state measured NADH oxidase activity (Complex I, III, IV) % for each of the molecules provided.
tested on: NADH oxidase (complexes I, III and IV); assay: NADH oxidase activity (complexes I, III and IV) in submitochondrial particles; type: biochemical, bovine; conditions: 1 μM

(Q) If you can, please state the reported NADH oxidase activity (Complex I, III, IV) % value of CCCCCCCCCCCCCC1=C(OC)C(=O)C(C)=C(NCCCC(=O)OCCCC)C1=O [Compound 46] .
(A) 86 ± 2^ %

(Q) Query CCCCCCCCCCCCCC1=C(NCCCC(=O)OC(C)(C)C)C(=O)C(C)=C(NCCCC(=O)OC(C)(C)C)C1=O [Compound 44] next
(A) 95 ± 2^ %

(Q) Consider next the molecule CCCCCCCCCCCCCC1=C(OC)C(=O)C(C)=C(NCCCC(=O)OCCCCCC)C1=O [Compound 49] in the same way.
(A) 74 ± 2^ %

(Q) Also check CCCCCCCCCCCCCC1=C(OC)C(=O)C(C)=C(NCCCC(=O)OC(C)(C)C)C1=O [Compound 43]
(A) 87 ± 2^ %

(Q) Then this molecule: CCCCCCCCCCCCCC1=C(NCCCC(=O)OCCCC)C(=O)C(C)=C(NCCCC(=O)OCCCC)C1=O [Compound 47]
(A) 77 ± 1^ %

(Q) Similarly, CCCCCCCCCCCCCC1=C(NCCCC(=O)OCCCCCC)C(=O)C(C)=C(NCCCC(=O)OCCCCCC)C1=O [Compound 50] ?
(A) 85 ± 1^ %

(Q) Again, but for COC1=C2CCCCCCCCCCCCCCCNC(=CC1=O)C2=O [Compound 40]
(A) 95 ± 3^ %

Every entry's value here was drawn from patent US9957214B2.
